target-of-assay: human GPR119 receptor (Homo sapiens, UniProt Q8TDV5, S329A/T327A)
Construct: N-terminal leader […]; expressed in transfected cells
Sequence (Q8TDV5 with tags, fused parts or gaps T327A/S329A): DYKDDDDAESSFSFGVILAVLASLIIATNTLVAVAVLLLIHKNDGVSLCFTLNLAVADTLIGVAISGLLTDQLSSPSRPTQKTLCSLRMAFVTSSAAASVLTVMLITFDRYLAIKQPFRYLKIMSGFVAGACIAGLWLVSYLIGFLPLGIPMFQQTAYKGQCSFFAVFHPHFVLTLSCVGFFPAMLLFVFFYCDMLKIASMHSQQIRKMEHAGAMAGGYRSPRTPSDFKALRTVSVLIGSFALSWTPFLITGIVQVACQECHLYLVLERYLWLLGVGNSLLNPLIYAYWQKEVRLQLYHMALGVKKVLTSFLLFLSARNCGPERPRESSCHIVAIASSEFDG
experiment-description: cAMP assay (LANCE cAMP-384) in HEK293 cells stably expressing mutant human GPR119 receptor
Format: cell-based
condition-set: cAMP accumulation, HEK293 cells stably expressing mutant human GPR119; read-out: EC50
Response field label: string, one of fulfilled (EC50 strictly below 50 nM) or not fulfilled.

EC50 strictly < 50 nM for this molecule? COC(=O)c1nc(Cl)c(N2CCC(=NOC3CCN(C(=O)OC(C)C)CC3)CC2)nc1N [Example 2-34]
not fulfilled

EC50 strictly < 50 nM for this molecule? CSc1nc(N2CCC(=NOC3CCN(C(=O)OC(C)C)CC3)CC2)ncc1Br [Example 2-55]
not fulfilled

EC50 strictly < 50 nM for this molecule? CC(C)OC(=O)N1CCC(ON=C2CCN(c3cc(F)c(Cn4cnc5cccnc54)cc3F)CC2)CC1 [Example 14-6]
not fulfilled

EC50 strictly < 50 nM for this molecule? CC(C)OC(=O)N1CCC(ON=C2CCN(c3cc(F)c(C(C)O)cc3F)CC2)CC1 (stereo not drawn) [Example 50-1]
fulfilled

EC50 strictly < 50 nM for this molecule? CC(C)OC(=O)N1CCC(ON=C2CCN(c3cccc(S(C)(=O)=O)c3)CC2)CC1 [Example 32-3]
not fulfilled

EC50 strictly < 50 nM for this molecule? CC(C)OC(=O)N1CCC(ON=C2CCN(c3cc(F)c(C=O)cc3F)CC2)CC1 [Example 2-3]
fulfilled

EC50 strictly < 50 nM for this molecule? CC(C)OC(=O)N1CCC(ON=C2CCN(c3cc(F)c(-c4cccnc4)cc3F)CC2)CC1 [Example 27-4]
not fulfilled

EC50 strictly < 50 nM for this molecule? CC(C)OC(=O)N1CCC(ON=C2CCN(c3cc(F)c(-c4cccs4)cc3F)CC2)CC1 [Example 27-1]
not fulfilled

EC50 strictly < 50 nM for this molecule? CC(C)OC(=O)N1CCC(ON=C2CCN(c3cc(F)c(-c4cnn(C)c4)cc3F)CC2)CC1 [Example 27-34]
not fulfilled
